This listing pairs molecules with measured pIC50.
Tested on: asymmetric di-methyl PABP1 in RKO cells
experimentalProtocol: In Cell Western (ICW) for asymmetric di-methyl PABP1 and DNA content in RKO cells
Type: cell-based
conditionSummary: Homo sapiens, RKO, In Cell Western
In plain terms, pIC50 is the concentration in mol/L turned into minus its base-10 logarithm.

| molecule | valueReported |
| --- | --- |
| CNCCN(C)Cc1cccc(-c2cc(C(=O)NCc3cn4cccc(C)c4n3)c3cnn(C(C)C)c3n2)c1 [Compound 181] | 6.14 |
| CNCCN(C)Cc1cccc(-c2cc(-c3ccco3)c3cnn(C(C)C)c3n2)c1 [Compound 209] | 4.70 |
| CNCCN(C)Cc1cccc(-c2cc(C(=O)N3CCC3)c3cnn(C(C)C)c3n2)c1 [Compound 252] | 4.70 |

Now turn to the next molecule.
So what does the record say about pIC50 for CN(CCN)Cc1cccc(-c2nc(NCc3cn4ccsc4n3)c3cnn(C4CC4)c3n2)c1 [Compound 5] ?
4.70

----------
Human CARM1 (PRMT4) (Homo sapiens) data, read-out pIC50
Structures can show the parent of a compound that is named as a salt.
Please report pIC50 as the negative decimal logarithm of the molar concentration, giving only the number.

| compound | pIC50 |
| --- | --- |
| Cc1nn(C(C)C)c2nc(-c3cccc(CN(C)CCN)c3)cc(N3CCOCC3)c12 | 8.05 |
| CNCCN(C)Cc1cccc(-c2cc(C(=O)NCCCCCC(=O)NCc3c(C)cc(C)[nH]c3=O)c3cnn(C(C)C)c3n2)c1 | 8.05 |
| CNCCN(C)Cc1cccc(-c2cc(C(=O)NC3CCOCC3)c3cnn(C4CC4)c3n2)c1 | 7.43 |
| CNCCN(C)Cc1cccc(-c2cc(-c3ccsc3)c3cnn(C(C)C)c3n2)c1 | 7.34 |
| CNCCN(C)Cc1cccc(-c2cc(C(=O)NC3CCOC3)c3cnn(C(C)C)c3n2)c1 (centres unmarked) | 7.36 |
| CNCCN(C)Cc1cccc(-c2cc(N3CCOCC3)n3ncc(C(C)C)c3n2)c1 [Compound 62, formate] | 7.68 |
| CNCCN(C)Cc1cccc(-c2cc(C(=O)NCCCC(=O)NCc3c(C)cc(C)[nH]c3=O)c3cnn(C(C)C)c3n2)c1 | 8.08 |
| CNCCN(C)Cc1cccc(-c2cc(NC)c3cnn(C(C)C)c3n2)c1 | 7.15 |
| CNCCN(C)Cc1cccc(-c2cc(C(=O)NC3CCOCC3)c3cnn(CC(F)(F)F)c3n2)c1 | 7.09 |
| CNCCN(C)Cc1cccc(-c2cc(C(=O)NCc3cnc[nH]3)c3cnn(C(C)C)c3n2)c1 | 7.37 |

# get_value(readout= pIC50, system= Human CARM1 (PRMT4) (Homo sapiens)) for CNC(=O)Nc1cc(-c2cccc(CN(C)CCN)c2)nc2c1cnn2C(C)C
8.10

----------
systemUnderTest: Human CARM1 (PRMT4) (Homo sapiens)
Sequence (Q86X55 2-585 isoform Q86X55-1): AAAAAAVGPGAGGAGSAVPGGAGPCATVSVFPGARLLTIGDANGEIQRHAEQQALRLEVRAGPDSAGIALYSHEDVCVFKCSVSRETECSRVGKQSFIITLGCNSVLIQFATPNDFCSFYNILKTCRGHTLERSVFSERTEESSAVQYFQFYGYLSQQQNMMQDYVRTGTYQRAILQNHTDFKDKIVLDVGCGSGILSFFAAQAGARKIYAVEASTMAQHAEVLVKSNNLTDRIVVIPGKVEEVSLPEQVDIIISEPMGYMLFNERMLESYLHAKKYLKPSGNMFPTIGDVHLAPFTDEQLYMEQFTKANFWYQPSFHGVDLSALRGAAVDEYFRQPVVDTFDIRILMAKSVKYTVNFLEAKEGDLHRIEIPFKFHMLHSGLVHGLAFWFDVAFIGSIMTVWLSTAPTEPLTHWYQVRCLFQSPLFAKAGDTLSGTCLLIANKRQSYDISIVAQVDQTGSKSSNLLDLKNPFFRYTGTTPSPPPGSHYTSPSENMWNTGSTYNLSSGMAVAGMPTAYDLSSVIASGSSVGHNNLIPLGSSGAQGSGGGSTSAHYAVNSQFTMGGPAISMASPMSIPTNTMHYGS
Reported IC50 maps to class as: lower range: < 30 nM; middle range: ≥ 30 nM and < 200 nM; upper range: ≥ 200 nM

As a guide, the following entries are already answered.
| molecule | classLabel |
| --- | --- |
| CNCCN(C)Cc1cccc(-c2cc(N3CCCCC3)c3cnn(C(C)C)c3n2)c1 [Compound 177] | lower range |
| CNCCN(C)Cc1cccc(-c2cc(NC(=O)NC)c3cnn(C(C)C)c3n2)c1 [Compound 138] | lower range |
| Cc1cc(C)c(CNC(=O)c2cc(-c3cccc(CNCCN(C)C)c3)nc3c2cnn3C(C)C)c(=O)[nH]1 [Compound 369] | upper range |

Class? Entry: CN1CCN(C(=O)c2cccc(Cn3cnc4ccc(-c5ccc(CNCCN)cc5)cc43)c2)CC1 [Compound 329]
upper range

Kindly identify the class of CN(CCN)Cc1cccc(-c2nc(NCc3ccncc3)c3cnn(C4CC4)c3n2)c1 [Compound 66] .
lower range

Consider CNCCN(C)Cc1cccc(-c2cc(C(=O)NCCC(=O)NCc3ccn(C)n3)c3cnn(C(C)C)c3n2)c1 [Compound 83] . To which IC50 class does it belong?
lower range

----------
Test system: asymmetric di-methyl PABP1 in RKO cells
experimentalProtocol: In Cell Western (ICW) for asymmetric di-methyl PABP1 and DNA content in RKO cells
Format: cell-based
conditionSummary: Homo sapiens, RKO, In Cell Western
Experimental: RKO adherent cells were purchased from ATCC (American Type Culture Collection), Manassas, Va., USA. […] Calculations: First, the ratio for each well was determined by: Each plate included fourteen control wells of DMSO only treatment (minimum inhibition) as well as fourteen control wells for maximum inhibition treated with 20 μM of a reference compound. The average of the ratio values for each control type was calculated and used to determine the percent activation for each test well in the plate. […]
Some compounds, each annotated with its measured IC50.
Give the value in µM but do not write µM after it.

# example entries with known answers
| compound | valueReported |
| --- | --- |
| CC(C)n1ncc2c(C(=O)NCc3cn(C)cn3)cc(-c3cccc(CN(C)CCN)c3)nc21 [Compound 262] | 10.2 |
| CCNc1cc(-c2cccc(CN(C)CCNC)c2)nc2c1cnn2C(C)C [Compound 72] | 5.36 |
| CC(C)n1cc2c(C(=O)NCC3CCOCC3)cc(-c3cccc(CN(C)CCN)c3)nc2n1 [Compound 297] | 20 |
| CNCCN(C)Cc1cccc(-c2nc(NCc3cc(C)nn3C)c3cnn(C4CC4)c3n2)c1 [Compound 17] | 20 |
| CN(CCN)Cc1cccc(-c2ccc(C(=O)NC3CCOCC3)c(N(C)CC3CC3)c2)c1 [Compound 245] | 20 |

Data request, read-out IC50, for CNCCN(C)Cc1cccc(-c2cc(N)c3cnn(C(C)C)c3n2)c1 [Compound 151]
20

Could you tell me which IC50 is on file for COC(=O)Nc1cc(-c2cccc(CN(C)CCN)c2)nc2c1cnn2C(C)C [Compound 71] ?
11

Could you tell me which IC50 is on file for CNCCN(C)Cc1cccc(-c2cc(C(=O)N(C)C3CC3)c3cnn(C(C)C)c3n2)c1 [Compound 292] ?
14

----------
systemUnderTest: PRMT5 (Homo sapiens, UniProt O14744)
Sequence (O14744 whole entry, species assumed): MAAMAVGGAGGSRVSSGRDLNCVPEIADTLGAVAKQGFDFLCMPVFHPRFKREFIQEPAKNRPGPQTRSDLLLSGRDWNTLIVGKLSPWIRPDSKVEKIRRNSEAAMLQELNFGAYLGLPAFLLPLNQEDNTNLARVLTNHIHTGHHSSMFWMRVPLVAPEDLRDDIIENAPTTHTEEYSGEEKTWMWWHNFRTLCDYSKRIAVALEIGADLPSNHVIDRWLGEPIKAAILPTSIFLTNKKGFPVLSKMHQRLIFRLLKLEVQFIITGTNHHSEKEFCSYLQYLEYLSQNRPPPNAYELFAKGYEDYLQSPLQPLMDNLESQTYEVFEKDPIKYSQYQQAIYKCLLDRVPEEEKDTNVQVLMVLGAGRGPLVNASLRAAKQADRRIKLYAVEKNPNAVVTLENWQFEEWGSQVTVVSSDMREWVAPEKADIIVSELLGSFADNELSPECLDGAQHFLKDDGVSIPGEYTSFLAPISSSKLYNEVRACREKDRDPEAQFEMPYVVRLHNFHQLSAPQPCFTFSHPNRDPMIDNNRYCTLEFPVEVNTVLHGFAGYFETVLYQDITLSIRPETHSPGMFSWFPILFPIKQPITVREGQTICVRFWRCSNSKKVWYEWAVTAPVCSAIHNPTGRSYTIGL
Sequence (Q9BQA1 whole entry partner, species assumed): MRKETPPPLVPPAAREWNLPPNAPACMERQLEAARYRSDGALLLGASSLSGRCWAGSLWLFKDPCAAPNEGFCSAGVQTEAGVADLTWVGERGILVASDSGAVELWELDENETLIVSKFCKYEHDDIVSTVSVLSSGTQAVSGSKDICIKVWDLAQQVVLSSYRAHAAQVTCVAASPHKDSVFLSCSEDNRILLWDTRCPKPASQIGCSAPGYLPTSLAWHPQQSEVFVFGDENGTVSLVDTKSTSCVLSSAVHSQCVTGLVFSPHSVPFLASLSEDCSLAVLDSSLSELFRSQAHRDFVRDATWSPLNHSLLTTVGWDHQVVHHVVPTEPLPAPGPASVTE
parameterMeasured: pIC50
Quick note: pIC50 values are minus log10 of concentrations in mol/L.

| smilesCode | systemUnderTest | pIC50 |
| --- | --- | --- |
| N#Cc1ccc(-n2cnc3ccc(-c4ccc(CNCCN)cc4)cc32)cc1 | PRMT5 (Homo sapiens, UniProt O14744) | 6.62 |
| Cc1cc(C)c(CNC(=O)c2cncc(-c3ccc(CNCCN)cc3)c2)c(=O)[nH]1 | PRMT5 (Homo sapiens, UniProt O14744) | 5.67 |

# query: pIC50 | item NCCNCc1ccc(-c2ccc3ncn(CCc4cccc(Cl)c4)c3c2)cc1 | system: PRMT5 (Homo sapiens, UniProt O14744)
7.18

Query the reported pIC50 for PRMT5 (Homo sapiens, UniProt O14744); item: Cc1cc(C)c(CNC(=O)c2cncc(-c3ccc(CN(C)CCN)cc3)c2)c(=O)[nH]1
4.35

Param readout = pIC50; param system = PRMT5 (Homo sapiens, UniProt O14744); param query = NCCNCc1ccc(-c2ccc3cnn(CC4CCNCC4)c3c2)cc1 ; response: value
6.36

Tell me reported pIC50 for Cc1ccccc1Cn1cnc2ccc(-c3ccc(CNCCN)cc3)cc21 , tested with PRMT5 (Homo sapiens, UniProt O14744).
6.63

Request body: readout pIC50, system PRMT5 (Homo sapiens, UniProt O14744), query CC(C)n1ncc2c(C(=O)N(C)Cc3ccccc3Cl)cc(-c3cccc(CN(C)CCN)c3)nc21 . Return the value.
6.63

Quick check: pIC50 on PRMT5 (Homo sapiens, UniProt O14744), item NCCNCc1ccc(-c2ccc3ncn(Cc4cccc(C(=O)Nc5cccc6c5CCCC6)c4)c3c2)cc1 ?
7.09

Please state recorded pIC50 (tested on PRMT5 (Homo sapiens, UniProt O14744)) of CC(C)n1ncc2c(C(=O)N(C)Cc3ccc(F)cc3)cc(-c3cccc(CN(C)CCN)c3)nc21
5.13
